Tested on: SK-MEL-2 melanoma
Assay: NCI tumour cell line growth inhibition, 48 h
Listing: TGI of selected compounds
Report as a plain number; the unit µM is understood.

The reported value for O=C(N[C@@H](c1ccc(Cl)c(Cl)c1)C1CNC1)c1ccc2cnccc2c1 in terms of TGI is 3.06

The reported value for CC(C)Oc1ccc2cc(-c3nn(CC4CCNCC4)c4ncnc(N)c34)ccc2c1 in terms of TGI is 24.4

The reported value for COc1ccc2[nH]cc(C3(c4c[nH]c5ccc(OC)cc45)C(=O)Nc4ccc(F)cc43)c2c1 in terms of TGI is 5.02

====

System: RPMI-8226 leukemia
Assay: NCI tumour cell line growth inhibition, 48 h
Observed Property: TGI

Example cases with answers are listed next.
CC1CCC(=O)C(C(=O)CC2CC(=O)N(C)C(=O)C2)C1 (stereo not drawn) = > 100 µM
Nc1nc(SC/C=C/c2ccccc2)c2[nH]cnc2n1 = > 100 µM
COc1cccc(C2=NC(C(C)C)CO2)c1 (stereo not drawn) = > 100 µM
COc1c(OC[C@H](O)CN2CCOCC2)ccc2c3n(c(=NC(=O)c4cccnc4C)nc12)CCN3 = > 50 µM
O=c1c(/C=C/c2c(O)ccc3ccccc23)nnc2sc(-c3cccc(Br)c3)nn12 = > 100 µM
O=C1CCCC1CN1CCCC1 (stereo not drawn) = 6.8 µM

The reported value for O=C(c1ccccc1Br)C(F)(F)F in terms of TGI is > 100 µM

The reported value for CC(C)(C)OC(=O)[C@H]1CCC(=S)N1Cc1ccccc1 in terms of TGI is > 100 µM

The reported value for N#Cc1c(-c2ccc(Cl)cc2Cl)nc2[nH][nH]c(=S)n2c1=O in terms of TGI is > 100 µM

The reported value for O=[N+]([O-])/C(C(Cl)=C(Cl)Cl)=C(/Cl)Sc1ccccc1 in terms of TGI is 1.15 µM

The reported value for COc1ccc(-c2nn(-c3ccc(NC(=O)c4ccc(Cl)c(Cl)c4)cc3)cc2-c2ccncc2)cc1Cl in terms of TGI is > 11.6 µM

The reported value for CC(O)C1(CNc2cc(Cl)nc(N)n2)CCC1 (stereo not drawn) in terms of TGI is > 100 µM

The reported value for Nc1c(C(=O)Nc2ccncc2)sc2nc3c(cc12)CCCCCCCC3 in terms of TGI is 2.71 µM

====

System: LOX IMVI melanoma
Assay: NCI tumour cell line growth inhibition, 48 h
Listing: TGI of selected molecules

Example cases with answers are listed next.
COc1cccc2c1C(=O)c1c(O)c3c(c(O)c1C2=O)C[C@](O)(C(=O)CO)C[C@H]3O[C@@H]1C[C@@H](NC(=O)CCCCCN(C)C2(c3ccc(F)cc3)CC3CCC2C3)[C@H](O)[C@@H](C)O1 (stereo partly drawn) = 13.1 µM
CN(C)CCCC12CCCCC1=Nc1ccccc12 (stereo not drawn) = > 100 µM
COc1ccc(CC2NCCc3c2[nH]c2ccccc32)cc1 (stereo not drawn) = > 100 µM
Cc1ccc(/C=C/C(=O)c2sc(-c3nc(C)c(C(=O)/C=C/c4ccc(C)cc4)s3)nc2C)cc1 = > 100 µM
O=c1ccn([C@H]2CSC[C@@H](CO)C2)c(=O)[nH]1 = > 100 µM

The reported value for COc1cc2c3c(n(C)c(=O)c2cc1OC)-c1cc2c(cc1/C3=C\CN)OCO2 in terms of TGI is 1.46 µM

The reported value for OC1C#CCSCC#C/C=C\1 (stereo not drawn) in terms of TGI is > 100 µM

The reported value for CC1OC(OC2C(O)COC(OC3C(C)OC(OC4C(OC(=O)[C@]56CCC(C)(C)C[C@@H]5C5=CCC7[C@@]8(C)C[C@H](O)[C@H](OC9OC(CO)C(O)C(O)C9O)[C@@](C)(CO)[C@@H]8CC[C@@]7(C)[C@]5(C)CC6)OCC(O)C4O)C(O)C3OC3OCC(O)(CO)C3O)C2O)C(O)C(O)C1O (stereo partly drawn) in terms of TGI is 43.2 µM

The reported value for COc1cc(NCc2ccc3nc(N)nc(N)c3c2C)cc(OC)c1OC (tested in a mixture with another compound) in terms of TGI is 38.3 µM

The reported value for O=C(CC1(O)C(=O)N(Cc2ccccc2)c2ccc(F)cc21)c1ccc(C(=O)NCC2CCC3(CC2)OOC2(CCCCC2)OO3)cc1 (stereo not drawn) in terms of TGI is 0.222 µM

The reported value for CCC(C)COC(=O)c1ccc(N=Cc2ccc(C=Nc3ccc(C(=O)OCC(C)CC)cc3)cc2)cc1 (stereo not drawn) in terms of TGI is > 100 µM

The reported value for N#C/C1=C(\N)CCSSSC1 in terms of TGI is > 100 µM

The reported value for CC[C@H]1[C@@H]2C=C[C@@H]3[C@H]4C/C=C\C(=O)NCCC[C@@H]5NC(=O)/C(=C(O)/C=C/[C@@H]4C[C@@H]3[C@H]2C[C@H]1C)C5=O in terms of TGI is 1.96 µM

The reported value for CC(=O)c1[nH]c(NCc2ccccc2)c(C(=S)Nc2ccccc2)c1N in terms of TGI is 32.8 µM
